Reference source: patent US4321381A

Listed here are compounds together with their documented Change in HR, 1 hr after dose, fourth day.
- Tested on: spontaneously hypertensive male rats, strain MHS
- Protocol Description: Anti-hypertensive activity in the spontaneously hypertensive rat (MHS): blood pressure and heart rate at the tail
- Type: in vivo
- Condition Details: 2 mg/kg os, fourth day, 1 hr after dose
State just the number; it will be interpreted in b/min.

Compound | Quantitative Readout
CN1C[C@H](CC(C#N)C(=O)NCc2ccccc2)C[C@@H]2c3cccc4[nH]cc(c34)C[C@H]21 (stereo partly drawn) [Example 1131] | -55
CN1C[C@H](CC(C#N)C(N)=O)C[C@@H]2c3cccc4[nH]cc(c34)C[C@H]21 (stereo partly drawn) [355/1057] | -2

Prompt line: Which Change in HR, 1 hr after dose, fourth day value belongs to CN1C[C@H](CC(C#N)C(=O)N2CCCC2)C[C@@H]2c3cccc4[nH]cc(c34)C[C@H]21 (stereo partly drawn) [Example 1133] ?
Response line: -20

Prompt line: Which Change in HR, 1 hr after dose, fourth day value belongs to CCNC(=O)C(C#N)C[C@@H]1C[C@@H]2c3cccc4[nH]cc(c34)C[C@H]2N(C)C1 (stereo partly drawn) [Example 1138] ?
Response line: -47
